Values from patent US12116358B2

Target: SETD2(1434-1711) (Homo sapiens)
Construct: SETD2 (1434-1711) Assay; catalogue N/A
Sequence (Q9BYW2 1434-1711): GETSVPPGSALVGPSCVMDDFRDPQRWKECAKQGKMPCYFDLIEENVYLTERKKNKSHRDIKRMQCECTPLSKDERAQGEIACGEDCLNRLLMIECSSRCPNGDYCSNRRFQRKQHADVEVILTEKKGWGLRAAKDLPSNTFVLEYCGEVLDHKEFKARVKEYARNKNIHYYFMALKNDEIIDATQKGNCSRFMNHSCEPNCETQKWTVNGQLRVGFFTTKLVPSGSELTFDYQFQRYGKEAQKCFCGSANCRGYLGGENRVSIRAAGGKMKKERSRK
Assay: SETD2 (1434-1711) assay
Type: biochemical
Settings: read-out: SETD2 (1434-1711)
Recorded IC50 by entry
Express the result in µM but write the number alone.

Solved cases (5 shown):
compound=Cc1cccc2cc(C(=O)Nc3ccncc3)[nH]c12 experimental_endpoint=IC50 measurement=15.6
compound="Cc1ccc(F)c2cc(C(=O)NC(C(=O)N(C)C)c3ccccn3)[nH]c12 (stereo not drawn)" experimental_endpoint=IC50 measurement=12.1
compound="Cc1cccnc1C(CN1CCOCC1)NC(=O)c1cc2cccc(C)c2[nH]1 (stereo not drawn)" experimental_endpoint=IC50 measurement=7.9
compound=Cc1ccc(F)c2cc(C(=O)N[C@@H]3CCC[C@H](c4cccnc4)C3)[nH]c12 experimental_endpoint=IC50 measurement=0.04
compound=Cc1ccc(CN2CCOCC2)cc1NC(=O)c1cc2cccc(C)c2[nH]1 experimental_endpoint=IC50 measurement=2.1

# input Return reported IC50; argument: Cc1cccnc1C(Cc1cnn(CC2CC2)c1)NC(=O)c1cc2cccc(C)c2[nH]1 (stereo not drawn)
# output 0.07

# input Return reported IC50; argument: Cc1ccc(F)c2cc(C(=O)Nc3cccc(N(C)C4CCNCC4)c3)[nH]c12
# output 0.07

# input Return reported IC50; argument: CC(=O)N(C)C1CN(C2CCCC(NC(=O)c3cc4c(F)ccc(C)c4[nH]3)C2)C1 (stereo not drawn)
# output 0.02
